Data origin, for the record: PubChem BioAssay (NCATS)

# ASSAY INFO: qHTS of pediatric cancer cell lines to identify multiple opportunities for drug repurposing: Primary screen for SK-N-SH cells (AID 1347098);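 note: DMSO served as neutral control and bortezomib at 2.3 µM as positive control; % is set by controls: 0 for no effect and ±100 for the full control effect; nearly all actives have a fitted effect of over 65% in size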
# CONDITION INFO: SK-N-SH viability, CellTiter-Glo luminescence, 48 h; series mostly up to 57 µM
Results filed as inconclusive are left out. Activity calls are given as the source filed them. Calls come from the whole dose curve; as a rule, active = well fitted cell-killing curve with a large enough effect; inconclusive = small, poorly fitted or top-dose-only effect; inactive = no such curve, though single readings can be large or run the other way.
Select the correct class. Options are true (1) (active), false (0) (inactive) and nothing else.

Request: Dear all, I need the recorded test outcome for `CC[C@@H]([C@H](C)O)n1ncn(-c2ccc(N3CCN(c4ccc(OC[C@@H]5CO[C@@](Cn6cncn6)(c6ccc(F)cc6F)C5)cc4)CC3)cc2)c1=O` , thank you.
Response: false (0)

---

# Tested on: ECU
# ASSAY INFO: qHTS profiling for inhibitors of Plasmodium falciparum proliferation (AID 504749); note: nearly all actives have a fitted effect of over 60% in size; note: potency is the fitted concentration of half-maximal effect
# CONDITION INFO: P. falciparum in erythrocytes, SYBR Green DNA, 72 h; series mostly up to 28.7 µM
Results filed as inconclusive are left out. Activity calls are given as the source filed them. The call rests on the fitted dose curve; in most records, active means well fitted inhibition curve with a large enough effect; inconclusive means small, poorly fitted or top-dose-only effect; inactive means flat fitted curve, though single readings scatter.
REPORTED METRIC: Potency

INSERT INTO assay_data (smiles_string, target_or_test_system, result) VALUES
  ('O=S(=O)(O)c1ccc2nc(-c3ccccc3)[nH]c2c1', 'ECU', 'inactive'),
  ('CCCCCCCCCCCCCCCC[n+]1ccccc1', 'ECU', '7.08 µM (active)'),
  ('CCCCCCCCCCCCCC[N+](C)(C)C', 'ECU', '4.47 µM (active)'),
  ('Nc1ncnc2nc[nH]c12', 'ECU', 'inactive'),
  ('O=C(Nc1ccc(Cl)cc1)Nc1ccc(Cl)c(Cl)c1', 'ECU', '3.55 µM (active)');

As a next step, examine the compound that follows.
Request: Given the entry `CCCCCCCCCCCCCCCC[N+](C)(C)Cc1ccccc1` , report its measured Potency.
Response: 3.16 µM (active)

---

# ASSAY INFO: qHTS assay for small molecule antagonists of retinoid X receptor alpha signaling (AID 588546);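 note: cells stimulated with 9-cis-retinoic acid as agonist; % is set by controls: 0 for no effect and ±100 for the full control effect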
# CONDITION INFO: HEK293T RXRa-UAS-bla, beta-lactamase ratio, antagonist mode; measured here: W530 green channel, cytotoxicity proxy
Records with an inconclusive call do not appear.
Please go through the items and note down their max response.
Answers are plain numbers, in %.

# count of solved cases: 4
INSERT INTO measurements (smiles_string, result_number) VALUES
  ('OCc1c[nH]c2ccccc12', 2.29),
  ('Brc1ccccc1-c1ccccc1', 1.21),
  ('COC(=O)c1c(Cl)c(Cl)c(C(=O)OC)c(Cl)c1Cl', -11.5),
  ('O=C(Oc1ccccc1)c1cccc(C(=O)Oc2ccccc2)c1', 0.814);

Give me max response for each of these compounds, listed below.
1. O=C(NO)c1ccccc1
2. CCCCCCCCCCCCCCCC[n+]1ccccc1
3. Cc1ccc(O)cc1
4. CCCC(=O)c1cc(O)c(O)cc1O
5. Cc1ncc(CO)c(CO)c1O

Response:
[-10.6, 11.3, -4.07, 4.85, -0.0047]

Request: Given the entry `CCN(CC)CCOc1ccc(/C(=C(\Cl)c2ccccc2)c2ccccc2)cc1` , report its measured max response.
Response: -2.07

---

# ASSAY INFO: qHTS of pediatric cancer cell lines to identify multiple opportunities for drug repurposing: Primary screen for SK-N-MC cells (AID 1347093);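 note: plate controls were DMSO neutral control for no effect and bortezomib for full effect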
# CONDITION INFO: SK-N-MC viability, CellTiter-Glo luminescence, 48 h; series mostly up to 46 µM
Records with an inconclusive call do not appear. The source made the active and inactive calls. Calls follow the shape of the dose curve; as a rule, active = well fitted cell-killing curve with a large enough effect; inconclusive = small, poorly fitted or top-dose-only effect; inactive = no such curve, though single readings can be large or run the other way.
Select the correct class. Options are active, inactive and nothing else.

Example cases with answers are listed next.
INSERT INTO measurements (molecule, group_label) VALUES
  ('CCC(C(=O)OCCN1CCOC(c2ccccc2)C1C)c1ccccc1 (stereo unspecified)', 'inactive'),
  ('CCOC(=O)Oc1ccc(CCNC(=O)[C@H](CCSC)NC(C)=O)cc1OC(=O)OCC', 'inactive'),
  ('C[C@H]1NCc2cc(-c3ccc4c(=O)c(C(=O)O)cn(C5CC5)c4c3OC(F)F)ccc21', 'inactive');

Continue with the next molecule.
Request: Dear all, I need the recorded test outcome for `C/C(=N\O)[C@@H](C)NCC(C)(C)CN[C@H](C)/C(C)=N/O` , thank you.
Response: inactive

---

# ASSAY INFO: P-glycoprotein substrates identified in KB-8-5-11 adenocarcinoma cell line, qHTS therapeutic library screen (AID 1346987); note: nearly all actives have a fitted effect of over 65% in size
# CONDITION INFO: KB-8-5-11 (P-gp overexpressing) viability, CellTiter-Glo, 72 h; series mostly up to 44.5 µM
Inconclusive results are not listed. The source made the active and inactive calls. Calls come from the whole dose curve; as a rule, active = well fitted inhibition curve with a large enough effect; inconclusive = small, poorly fitted or top-dose-only effect; inactive = flat fitted curve, though single readings scatter.
Select the correct class. Options are t for active, f for inactive and nothing else.

Example cases with answers are listed next.
INSERT INTO assay_data (compound, group_label) VALUES
  ('C[C@H]1NCc2cc(-c3ccc4c(=O)c(C(=O)O)cn(C5CC5)c4c3OC(F)F)ccc21', 'f'),
  ('OCc1cccnc1', 'f'),
  ('Cc1cccc(C)c1NC(=O)c1cc(S(N)(=O)=O)c(Cl)cc1O', 'f'),
  ('O=C(Oc1ccccc1)c1cccc(C(=O)Oc2ccccc2)c1', 'f'),
  ('O=C(O)CNC(=O)CNC(=O)CNC(=O)CSC(=O)c1ccccc1', 'f'),
  ('O=C(Nc1ccc(Cl)cc1)Nc1ccc(Cl)c(C(F)(F)F)c1', 't'),
  ('CCOC(=O)OCC/C(SC(=O)OCC)=C(\C)N(C=O)Cc1cnc(C)nc1N', 'f'),
  ('CC(C(O)c1ccccc1)N(C)CCOC(c1ccccc1)c1ccccc1 (configuration not stated)', 't');

Continue with the next compound.
Request: Dear all, I need the recorded test outcome for `Brc1ccccc1-c1ccccc1` , thank you.
Response: f

---

# TARGET OR TEST SYSTEM: ATP-dependent DNA helicase Q1 (Homo sapiens)
# ASSAY INFO: qHTS Validation Assay for Inhibitors of RecQ-Like Dna Helicase 1 (RECQ1) (AID 2353);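 note: plate controls were DMSO vehicle for no effect and enzyme-free control for full effect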
# CONDITION INFO: recombinant RECQ1 helicase DNA unwinding assay; series mostly up to 25.6 µM
Active and inactive are the calls of the source. Calls come from the whole dose curve; as a rule, active = well fitted inhibition curve with a large enough effect; inconclusive = small, poorly fitted or top-dose-only effect; inactive = flat fitted curve, though single readings scatter.
REPORTED METRIC: outcome

# count of solved cases: 5
INSERT INTO measurements (smiles_string, target_or_test_system, reported_metric, result) VALUES
  ('C[C@]12CCC(=O)C=C1CC[C@@H]1[C@@H]2[C@@H](O)C[C@@]2(C)[C@H]1CC[C@]2(O)C(=O)COC(=O)CCC(=O)O', 'ATP-dependent DNA helicase Q1 (Homo sapiens)', 'outcome', 'inactive'),
  ('CC(C)N(CCC(=O)c1ccc2ccccc2c1)Cc1ccccc1', 'ATP-dependent DNA helicase Q1 (Homo sapiens)', 'outcome', 'inactive'),
  ('COc1ccccc1N1CCN(CCN2C(=O)CC3(CCCC3)CC2=O)CC1', 'ATP-dependent DNA helicase Q1 (Homo sapiens)', 'outcome', 'inactive'),
  ('Cn1cnc2c(NCc3ccccc3)nc(NCCO)nc21', 'ATP-dependent DNA helicase Q1 (Homo sapiens)', 'outcome', 'inactive'),
  ('COc1cccc2c1[C@@H]1CN(CCCCn3c(=O)[nH]c4c(sc5ncc(-c6ccccc6)nc54)c3=O)C[C@@H]1CO2', 'ATP-dependent DNA helicase Q1 (Homo sapiens)', 'outcome', 'inactive');

As a next step, examine the compound that follows.
Request: Given the entry `NC(N)=NCCCCN=C(N)N` , report its measured outcome.
Response: inactive

---

# ASSAY INFO: qHTS of pediatric cancer cell lines to identify multiple opportunities for drug repurposing: Primary screen for BT-12 cells (AID 1347101); note: nearly all actives have a fitted effect of over 25% in size
# CONDITION INFO: BT-12 viability, CellTiter-Glo luminescence, 48 h; series mostly up to 57.3 µM
Records with an inconclusive call do not appear. Activity calls are given as the source filed them. Calls come from the whole dose curve; as a rule, active = well fitted cell-killing curve with a large enough effect; inconclusive = small, poorly fitted or top-dose-only effect; inactive = flat fitted curve, though single readings scatter.
Select the correct class. Options are 1.0 for active, 0.0 for inactive and nothing else.

INSERT INTO measurements (compound, group_label) VALUES
  ('CCOC(=O)c1ccc(NC(=O)CN2CCCCC2)cc1', 0.0),
  ('Cc1ccc2c(Cl)cc(Cl)c(O)c2n1', 0.0),
  ('NC(=O)NC1N=C([O][Al])NC1=O (configuration not stated)', 0.0);

Request: Dear all, I need the recorded test outcome for `O=C(O)C1CCC1` , thank you.
Response: 0.0

Request: Consider next the compound `Nc1nnnn1-c1ccccc1` in the same way.
Response: 0.0

Request: Consider next the compound `c1ccc(C(O[C@H]2CCCN(CCc3ccc4c(c3)OCO4)C2)c2ccccc2)cc1` in the same way.
Response: 0.0

Request: Consider next the compound `Oc1ccccc1-c1nnco1` in the same way.
Response: 0.0

Request: Consider next the compound O=C1NC2CCCCN2C12CCN(CCCN1c3ccccc3CCc3ccc(Cl)cc31)CC2 (configuration not stated) in the same way.
Response: 1.0

Request: Consider next the compound `CNC(=O)c1cnn(-c2nc(N)c3ncn([C@@H]4O[C@H](CO)[C@@H](O)[C@H]4O)c3n2)c1` in the same way.
Response: 0.0

Request: Consider next the compound `O=C(c1ccccc1)c1ccccc1` in the same way.
Response: 0.0

Request: Consider next the compound `C[C@H]1C[C@H]2[C@@H]3CCC4=CC(=O)C=C[C@]4(C)[C@H]3C(=O)C[C@]2(C)[C@@]1(O)C(=O)CO` in the same way.
Response: 0.0

Request: Consider next the compound `CC(=O)N(c1onc(C)c1C)S(=O)(=O)c1ccc(N)cc1` in the same way.
Response: 0.0

Request: Consider next the compound `CO/N=C(/C(=O)N[C@@H]1C(=O)N2C(C(=O)OCOC(=O)C(C)(C)C)=C(C)CS[C@H]12)c1csc(N)n1` in the same way.
Response: 0.0

Request: Consider next the compound `CCOC(=O)c1cc(=O)c2c(OCC(COc3cccc4oc(C(=O)OCC)cc(=O)c34)OC(=O)[C@@H](N)CCCCN)cccc2o1` in the same way.
Response: 0.0

Request: Consider next the compound `CN(C(=O)C(Cl)Cl)c1ccc(OC(=O)c2ccco2)cc1` in the same way.
Response: 0.0

Request: Consider next the compound `CCCCCCCCCCCCCCCCCCNC(=O)OC1CCN(C(=O)OC[C@H](COC(=O)N(Cc2cccc[n+]2CC)C(=O)c2ccccc2OC)OC)CC1` in the same way.
Response: 1.0

Request: Consider next the compound `N=C(N)c1ccc(OCCCOc2ccc(C(=N)N)cc2)cc1` in the same way.
Response: 1.0

Request: Consider next the compound `CCC(CN)=C(c1ccccc1)c1ccccc1` in the same way.
Response: 0.0

Request: Consider next the compound `NC(=O)C1(N2CCCCC2)CCN(CCCN2c3ccccc3CCc3ccc(Cl)cc32)CC1` in the same way.
Response: 1.0

Request: Consider next the compound `CCCCOCCOC(=O)c1cccnc1` in the same way.
Response: 0.0

Request: Consider next the compound `CN(C)[C@@H]1C(=O)C(C(N)=O)=C(O)[C@@]2(O)C(=O)C3=C(O)c4c(O)cccc4C[C@H]3C[C@@H]12` in the same way.
Response: 1.0

Request: Consider next the compound `Cc1ccccc1C(=O)N1CC/C(=N\OS(=O)(=O)O)c2ccc(Cl)cc21` in the same way.
Response: 0.0
